- ASSAY_EXPLANATION: gradient 5% acetonitrile 3 min, to 50% in 2 min, to 85% in 15 min, held 3 min, 100 µL/min
- PROTOCOL_CONDITIONS: column: Zorbax Extend-C18 2.1 x 50 mm; eluents: water / acetonitrile, 0.1% formic acid
READOUT_NAME: RP-LC retention time (s)
All answers are understood in s, so give the number only.

Below: 2 compounds and their reported RP-LC retention time.
> print(dat)
                                   compound          readout.name  observed.measurement
1  CN(C)S(=O)(=O)c1ccc(-c2nnc(C(=O)NCc3cc(F)cc(F)c3)o2)cc1  RP-LC retention time                   878
2  Cc1cc(C)cc(NC(=O)Cn2c(=O)n(-c3cccc(C)c3)c(=O)c3c2cc(C)n3C)c1  RP-LC retention time                   882

// moving on: another record for RP-LC retention time
Measured RP-LC retention time of CCOC(=O)C1CCCN(C(=O)CCC(=O)N2CCCn3nc(C)cc32)C1 (stereo unspecified) : 647
